# Subject Of Test: ifenprodil binding site of NMDA receptor (NR2B subunit containing) (Rattus norvegicus, UniProt P35439+Q00960)
# Construct: A membrane preparation of hippocampus for radioligand analysis was prepared; from tissue; host or cells: rat hippocampal membranes
# Sequence (Q00960 27-1482, other chains not shown): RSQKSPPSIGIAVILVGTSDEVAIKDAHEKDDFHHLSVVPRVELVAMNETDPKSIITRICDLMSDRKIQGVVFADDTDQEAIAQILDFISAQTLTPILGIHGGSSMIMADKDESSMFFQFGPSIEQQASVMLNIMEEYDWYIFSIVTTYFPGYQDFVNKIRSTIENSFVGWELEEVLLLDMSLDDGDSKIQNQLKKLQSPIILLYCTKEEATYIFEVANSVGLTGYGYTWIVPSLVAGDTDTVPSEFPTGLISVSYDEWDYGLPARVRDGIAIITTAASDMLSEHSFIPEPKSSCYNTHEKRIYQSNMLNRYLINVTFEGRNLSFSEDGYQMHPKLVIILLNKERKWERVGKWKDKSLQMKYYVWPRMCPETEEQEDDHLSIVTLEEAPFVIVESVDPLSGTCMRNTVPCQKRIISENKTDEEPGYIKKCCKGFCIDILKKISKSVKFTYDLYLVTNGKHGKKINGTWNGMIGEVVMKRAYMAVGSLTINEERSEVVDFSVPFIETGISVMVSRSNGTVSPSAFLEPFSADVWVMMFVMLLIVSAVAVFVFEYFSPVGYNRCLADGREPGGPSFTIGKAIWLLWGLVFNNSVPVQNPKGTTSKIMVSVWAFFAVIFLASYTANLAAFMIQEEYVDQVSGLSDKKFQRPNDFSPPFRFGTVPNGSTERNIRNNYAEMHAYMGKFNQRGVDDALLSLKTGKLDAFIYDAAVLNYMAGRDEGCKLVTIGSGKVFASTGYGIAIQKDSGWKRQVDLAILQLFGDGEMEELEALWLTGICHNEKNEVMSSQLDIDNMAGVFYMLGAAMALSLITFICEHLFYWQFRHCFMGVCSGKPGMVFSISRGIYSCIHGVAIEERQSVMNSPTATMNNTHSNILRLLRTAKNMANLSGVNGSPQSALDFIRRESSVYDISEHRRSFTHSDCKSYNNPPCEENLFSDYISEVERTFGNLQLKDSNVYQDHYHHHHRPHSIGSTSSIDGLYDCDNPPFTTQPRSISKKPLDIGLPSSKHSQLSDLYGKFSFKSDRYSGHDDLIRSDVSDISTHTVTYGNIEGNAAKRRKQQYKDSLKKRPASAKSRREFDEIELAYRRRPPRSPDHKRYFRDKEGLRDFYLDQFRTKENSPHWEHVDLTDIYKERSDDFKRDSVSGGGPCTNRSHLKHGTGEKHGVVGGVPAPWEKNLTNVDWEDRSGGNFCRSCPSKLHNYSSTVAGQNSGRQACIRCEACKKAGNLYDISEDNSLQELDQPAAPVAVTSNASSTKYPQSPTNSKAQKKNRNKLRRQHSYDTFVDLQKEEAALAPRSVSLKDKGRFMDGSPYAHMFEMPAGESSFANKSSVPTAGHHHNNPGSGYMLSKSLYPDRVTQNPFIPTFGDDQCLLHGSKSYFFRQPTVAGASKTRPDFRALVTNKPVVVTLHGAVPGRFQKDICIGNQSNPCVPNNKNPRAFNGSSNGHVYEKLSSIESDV
# Assay: Radioligand binding, [3H]ifenprodil site of NMDA receptor, hippocampal membranes
# Experimental Parameters: 100 μM compound; rat hippocampal membranes
Label 1 when % of [3H]ifenprodil blockade at 100 μM of compound is at or above 40%; anything below gets -1.

* Cc1ccc2c(c1)c1c(n2CCc2ccc(C)nc2)CCN(C)C1 [dimebon, reference compound] | -1
* CN1CCc2c(c3cc(F)ccc3n2CCC(=O)N2c3ccccc3Sc3ccccc32)C1 [C-1c] | 1
* COc1ccc2c(c1)c1c(n2C[C@@H](O)CN2c3ccccc3Sc3ccccc32)CCN(C)C1 [C-2c] | 1
* CCN1CCc2c(c3ccccc3n2CCC(=O)N2c3ccccc3Sc3ccccc32)C1 [C-1e] | 1
* CCN1CCc2c(c3cc(C)ccc3n2CCC(=O)N2c3ccccc3Sc3ccccc32)C1 [C-1b] | 1
* Cc1ccc2c(c1)c1c(n2CC(O)CN2c3ccccc3Sc3ccccc32)CCN(C)C1 (racemic) [C-2a] | 1
* Cc1ccc2c(c1)c1c(n2CCC(=O)N2c3ccccc3Sc3ccccc32)CCN(C)C1 [C-1a] | 1
* CCN1CCc2c(c3cc(F)ccc3n2CC(O)CN2c3ccccc3Sc3ccccc32)C1 (racemic) [C-2b] | -1
